# System: DU-145 cells
# Protocol description: MTT cell viability assay, 96 hr exposure
# Format: cell-based
# Applied conditions: DU-145, 96 hrs
Parameter: GI90 (µM)

Molecule	Subject of test	Comparative sign	Reported value
C[C@]12CC[C@H](O)CC1=CCC1C2CC[C@]2(C)C(n3ccnc3)=CCC12 (stereo partly shown) [VN/85-1]	DU-145 cells	=	31.62
C[C@]12CCC(=O)C=C1CCC1C2CC[C@]2(C)C(n3cnc4ccccc43)=CCC12 (stereo partly shown) [VN/125-1]	DU-145 cells	=	15.53
C[C@]12CC[C@H](O)CC1=CCC1C2CC[C@]2(C)C(n3cncn3)=CCC12 (stereo partly shown) [VN/63-1]	DU-145 cells	>	100
C[C@]12CC[C@H](O)CC1=CC[C@@H]1[C@@H]2CC[C@]2(C)C(n3cnc4ccccc43)=CC[C@@H]12 [VN/124-1]	DU-145 cells	=	15.95

src = patent US8785423B2
